biological target: Cytochrome P450 1A2 (Homo sapiens) (UniProt P05177); test: Cytochrome P450 Family 1 Subfamily A Member 2 (CYP1A2) small molecule antagonists: luciferase reporter qHTS assay (AID 1671199); settings: P450-Glo CYP1A2 enzyme, luciferin luminescence, 1 h; series mostly up to 53 µM; further: nearly all actives have a fitted effect of over 50% in size
Sequence (P05177 whole entry, looked up): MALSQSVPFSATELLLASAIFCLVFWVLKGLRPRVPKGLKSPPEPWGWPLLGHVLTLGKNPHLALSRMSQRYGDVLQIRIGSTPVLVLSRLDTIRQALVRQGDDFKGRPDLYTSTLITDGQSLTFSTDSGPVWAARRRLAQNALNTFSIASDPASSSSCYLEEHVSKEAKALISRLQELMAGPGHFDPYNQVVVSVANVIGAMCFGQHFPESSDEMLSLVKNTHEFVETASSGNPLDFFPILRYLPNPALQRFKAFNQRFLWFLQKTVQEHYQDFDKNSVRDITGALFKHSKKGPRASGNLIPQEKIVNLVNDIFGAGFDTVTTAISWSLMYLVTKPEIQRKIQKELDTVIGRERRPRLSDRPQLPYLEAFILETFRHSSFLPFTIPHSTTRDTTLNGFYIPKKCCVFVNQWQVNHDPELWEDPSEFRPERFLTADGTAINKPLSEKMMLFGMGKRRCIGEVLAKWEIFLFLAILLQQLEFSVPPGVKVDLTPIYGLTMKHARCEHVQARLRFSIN
Results filed as inconclusive are left out. Activity calls are given as the source filed them. The call rests on the fitted dose curve; in most records, active means well fitted inhibition curve with a large enough effect in the repeat runs; inconclusive means weak or mixed curves; inactive means no such curve, though single readings can be large or run the other way.
Write down one outcome, taken from 1 (yes) for active, 0 (no) for inactive

Solved cases below.
{"molecule": "OCCN1CCN(CCCN2c3ccccc3C=Cc3ccccc32)CC1", "class-label": "0 (no)"}
{"molecule": "OCc1cc(C(O)CNCCCCCCOCCCCc2ccccc2)ccc1O (stereo not drawn)", "class-label": "0 (no)"}
{"molecule": "CCc1c(C(=O)NN2CCCCC2)nn(-c2ccc(Cl)cc2Cl)c1-c1ccc(Br)cc1", "class-label": "0 (no)"}
{"molecule": "CCCCCCCCCCCCCCOS(=O)(=O)O", "class-label": "0 (no)"}
{"molecule": "NCCCN1CCOCC1", "class-label": "0 (no)"}
{"molecule": "CC(C)Nc1ccc(NC(C)C)c2c1C(=O)c1ccccc1C2=O", "class-label": "1 (yes)"}
{"molecule": "CCc1cc(C2=C(C(=O)O)N(c3ccccc3C(F)(F)F)S(=O)(=O)c3ccccc32)cc2c1OCO2", "class-label": "0 (no)"}

Outcome? CC(CSC(=O)c1ccccc1)C(=O)N1C[C@@H](Sc2ccccc2)C[C@H]1C(=O)O (stereo partly drawn)
0 (no)

* * *

assay: Human pregnane X receptor (PXR) small molecule agonists, qHTS cell viability counter screen (AID 1346977); settings: PXR-Luc HepG2 viability, CellTiter-Fluor, 24 h; series mostly up to 92.4 µM; further: nearly all actives have a fitted effect of over 50% in size; further: potency means the concentration at half of the fitted maximal effect
Inconclusive results are not listed. Activity calls are given as the source filed them. Calls come from the whole dose curve; as a rule, active = well fitted cell-killing curve with a large enough effect in the repeat runs; inconclusive = weak or mixed curves, or effect the other way; inactive = flat fitted curve, though single readings scatter.
quantity-measured: Potency

Answered cases to consult:
{"molecule": "CCCCCC[C@@H](O)C/C=C\\CCCCCCCC(=O)OC", "quantity-measured": "Potency", "assay-value": "inactive"}
{"molecule": "CCC(Cl)CCC(Cl)C(Cl)CC(Cl)C(Cl)C(Cl)CCl (configuration not stated)", "quantity-measured": "Potency", "assay-value": "inactive"}
{"molecule": "CCC(C)c1cc(C(C)(C)C)c(O)c(C(C)(C)C)c1 (configuration not stated)", "quantity-measured": "Potency", "assay-value": "inactive"}
{"molecule": "CCCn1cnc2c1c(=O)n(CCCCC(C)=O)c(=O)n2C", "quantity-measured": "Potency", "assay-value": "inactive"}

Look up Potency for the entries below, preserving their order.
1. O=C(OCCc1ccccc1)c1ccccc1
2. O[C@@H](COc1cccc2ncccc12)CN1CCN(C2c3ccccc3[C@@H]3[C@H](c4ccccc42)C3(F)F)CC1 (some centres not stated)
3. C=C(C)C(=O)OCCO
4. CC(C)Nc1ccc(NC(C)C)c2c1C(=O)c1ccccc1C2=O
5. O=C(NCC1CN(c2ccc(N3CCOCC3=O)cc2)C(=O)O1)c1ccc(Cl)s1 (configuration not stated)
6. C=CC(=O)OCCOCCOC(=O)C=C
7. O=C1CCC(=O)O1

inactive
23.7 µM (active)
inactive
14.2 µM (active)
inactive
54.7 µM (active)
inactive

Look up Potency for the entries below, preserving their order.
1. Cc1ncc(CO)c(C=O)c1O
2. ClCCOCCOCCCl
3. CCN(CC)CCNc1ccc(CNC=O)c2sc3ccc(OC)cc3c(=O)c12
4. O=C(O)CC(=O)C(=O)O

["inactive", "inactive", "9.69 µM (active)", "inactive"]

Look up Potency for the entries below, preserving their order.
1. Nc1cccc(S(=O)(=O)c2cccc(N)c2)c1
2. O=C(OCCCCCCOC(=O)c1ccccc1)c1ccccc1
3. CC(C)O.CC(C)O.CCOC(=O)/C=C(\C)O.CCOC(=O)/C=C(\C)O.[Ti]

1. inactive
2. inactive
3. inactive

* * *

Molecular target: Cytochrome P450 2C9 (Homo sapiens)
Assay: Cytochrome P450 Family 2 Subfamily C Member 9 (CYP2C9) small molecule antagonists: luciferase reporter qHTS assay (AID 1671198); further: nearly all actives have a fitted effect of over 50% in size; further: potency means the concentration at half of the fitted maximal effect
Conditions: P450-Glo CYP2C9 enzyme assay, luciferin luminescence; series mostly up to 115 µM
Source text: U.S. Tox21 Program National Center for Advancing Translational Sciences [NCATS] U.S. Environmental Protection Agency [EPA] National Institutes of Environmental Health Sciences [NIEHS] National Toxicology Program [NTP] U.S. Food and Drug Administration [FDA] […] The luciferin products formed are detected with a luciferin detection reagent, and the amount of light produced is proportional to CYP activity. […]
Records with an inconclusive call do not appear. Active and inactive are the calls of the source. Calls come from the whole dose curve; as a rule, active = well fitted inhibition curve with a large enough effect in the repeat runs; inconclusive = weak or mixed curves; inactive = no such curve, though single readings can be large or run the other way.
quantity-measured: Potency

Answered cases to consult:
{"molecule": "O=S(=O)(Oc1ccc(Cl)cc1)c1ccccc1", "Potency": "31.7 µM (active)"}
{"molecule": "O=S(c1cc(Cl)cc(Cl)c1O)c1cc(Cl)cc(Cl)c1O", "Potency": "17.4 µM (active)"}
{"molecule": "O=P(O)(OCc1ccccc1)OCc1ccccc1", "Potency": "22.4 µM (active)"}
{"molecule": "CCOc1ccc(N=Nc2ccc(/C=C/c3ccc(N=Nc4ccc(OCC)cc4)cc3S(=O)(=O)O)c(S(=O)(=O)O)c2)cc1", "Potency": "inactive"}
{"molecule": "Nc1cc(C(=O)O)c(O)c(S(=O)(=O)O)c1", "Potency": "inactive"}

Look up Potency for the entries below, preserving their order.
1. CC(=O)c1cccc([N+](=O)[O-])c1
2. C=CCOC(=O)CCC1CCCCC1
3. O=C1CCC(=O)O1
4. C[N+](C)(C)CCOC(=O)CCC(=O)OCC[N+](C)(C)C

1. inactive
2. inactive
3. inactive
4. inactive

* * *

assay: A CellTox Green Cytotoxicity Assay to monitor cytotoxicity in HepG2 cells - 40 hour (AID 1224879); settings: CellTox Green fluorescence; series mostly up to 76.8 µM; further: nearly all actives have a fitted effect of over 40% in size
Inconclusive results are not listed. The source made the active and inactive calls. Calls come from the whole dose curve; as a rule, active = well fitted activation curve with a large enough effect in the repeat runs; inconclusive = weak or mixed curves; inactive = flat fitted curve, though single readings scatter.
Write down one outcome, taken from 1 = active, 0 = inactive

Outcome? O=C(O)c1ccc(S(=O)(=O)O)cc1C(=O)O
0

Outcome? OCCN1CCN(CCCN2c3ccccc3C=Cc3ccccc32)CC1
0

* * *

target: Nuclear receptor subfamily 1 group I member 2 (Homo sapiens); test: Human pregnane X receptor (PXR) small molecule agonists, qHTS assay (AID 1346982); details: PXR-Luc HepG2, CYP3A4 luciferase reporter, 24 h; series mostly up to 92.4 µM; further: nearly all actives have a fitted effect of over 35% in size
Records with an inconclusive call do not appear. The source made the active and inactive calls. Calls follow the shape of the dose curve; as a rule, active = well fitted activation curve with a large enough effect in the repeat runs; inconclusive = weak or mixed curves; inactive = no such curve, though single readings can be large or run the other way.
Write down one outcome, taken from yes (active), no (inactive)

Solved cases below.
{"compound": "CCCCC(CC)COC(=O)CCCCCCCCC(=O)OCC(CC)CCCC (centres undefined)", "class-label": "no"}
{"compound": "O=[N+]([O-])c1ccc(NCCO)c(OCCO)c1", "class-label": "no"}
{"compound": "CCCCCCCCCCCCCCOS(=O)(=O)O", "class-label": "no"}

Outcome? CCn1cc(C(=O)O)c(=O)c2cnc(N3CCNCC3)nc21
no

Outcome? CCOC(=O)C(F)(F)F
no

* * *

molecular target: Aryl hydrocarbon receptor (Homo sapiens) (UniProt P35869); test: qHTS assay to identify small molecule that activate the aryl hydrocarbon receptor (AhR) signaling pathway (AID 743085); settings: HepG2 AhR-luc (HG2L7.5c1), luciferase, 24 h; series mostly up to 70.3 µM; further: nearly all actives have a fitted effect of over 15% in size;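 on activation: HG2L7.5c1 human HepG2 liver cells with stably integrated DRE-driven firefly reporter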
Sequence (P35869 whole entry, looked up): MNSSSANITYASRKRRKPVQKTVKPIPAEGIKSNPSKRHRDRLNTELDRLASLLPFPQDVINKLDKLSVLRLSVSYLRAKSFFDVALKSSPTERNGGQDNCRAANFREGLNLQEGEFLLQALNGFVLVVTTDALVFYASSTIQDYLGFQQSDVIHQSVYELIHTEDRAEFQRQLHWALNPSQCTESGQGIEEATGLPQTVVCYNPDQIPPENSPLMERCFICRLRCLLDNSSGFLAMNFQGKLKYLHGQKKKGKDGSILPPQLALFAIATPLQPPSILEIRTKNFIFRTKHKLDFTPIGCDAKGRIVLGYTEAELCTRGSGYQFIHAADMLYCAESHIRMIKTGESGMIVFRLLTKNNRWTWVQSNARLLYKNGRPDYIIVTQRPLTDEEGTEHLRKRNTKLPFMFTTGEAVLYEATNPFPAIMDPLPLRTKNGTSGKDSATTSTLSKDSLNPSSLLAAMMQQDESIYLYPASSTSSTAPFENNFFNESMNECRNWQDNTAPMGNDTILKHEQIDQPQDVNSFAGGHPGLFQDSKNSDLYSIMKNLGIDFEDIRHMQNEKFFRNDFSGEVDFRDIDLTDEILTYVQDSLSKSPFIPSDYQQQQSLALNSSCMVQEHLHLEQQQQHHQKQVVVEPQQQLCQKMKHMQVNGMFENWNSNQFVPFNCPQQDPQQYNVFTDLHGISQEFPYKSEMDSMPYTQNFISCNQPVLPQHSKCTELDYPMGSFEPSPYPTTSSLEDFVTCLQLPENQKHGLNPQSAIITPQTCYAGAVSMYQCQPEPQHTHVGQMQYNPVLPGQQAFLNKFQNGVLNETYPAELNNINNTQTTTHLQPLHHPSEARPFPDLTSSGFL
Records with an inconclusive call do not appear. Activity calls are given as the source filed them. The call rests on the fitted dose curve; in most records, active means well fitted activation curve with a large enough effect in the repeat runs; inconclusive means weak or mixed curves; inactive means no such curve, though single readings can be large or run the other way.
Write down one outcome, taken from T for active, F for inactive

Outcome? CCN(CC)c1ccc2c(-c3ccccc3C(=O)O)c3ccc(=[N+](CC)CC)cc-3oc2c1
F

Outcome? C[C@@H](c1ncncc1F)C(O)(Cn1cncn1)c1ccc(F)cc1F (stereo partly drawn)
F

Outcome? Clc1ccc(Cn2c(CN3CCCC3)nc3ccccc32)cc1
F

Outcome? C[C@H]1C[C@H]2[C@@H]3CCC4=CC(=O)C=C[C@]4(C)[C@@]3(Cl)[C@@H](O)C[C@]2(C)[C@@]1(O)C(=O)CO
F

Outcome? O=C1c2ccccc2S(=O)(=O)N1CCCCN1CCN(c2ncccn2)CC1
F

Outcome? CN(C)C(=O)NC1(c2ccccc2)CCN(CC[C@@]2(c3ccc(F)c(F)c3)CN(C(=O)c3ccccc3)CCO2)CC1
F

Outcome? CC/C=C\CCOC(=O)CC
F

Outcome? NCC(=O)O
F

Outcome? CCCCCCCCO[C@@H]1O[C@H](CO)[C@@H](O)[C@H](O)[C@H]1O
F

Outcome? Nc1ccc(N)c2c1C(=O)c1ccccc1C2=O
T

* * *

biological target: Voltage-gated inwardly rectifying potassium channel KCNH2 (Homo sapiens) (UniProt Q12809); assay: Human Ether-a-go-go-Related Gene (hERG) channel small molecule antagonists: fluorescence cell-based qHTS assay (AID 1671200); conditions: hERG-U2OS cells, FluxOR thallium flux fluorescence; series mostly up to 76.8 µM; further: nearly all actives have a fitted effect of over 50% in size
Sequence (Q12809 whole entry, looked up): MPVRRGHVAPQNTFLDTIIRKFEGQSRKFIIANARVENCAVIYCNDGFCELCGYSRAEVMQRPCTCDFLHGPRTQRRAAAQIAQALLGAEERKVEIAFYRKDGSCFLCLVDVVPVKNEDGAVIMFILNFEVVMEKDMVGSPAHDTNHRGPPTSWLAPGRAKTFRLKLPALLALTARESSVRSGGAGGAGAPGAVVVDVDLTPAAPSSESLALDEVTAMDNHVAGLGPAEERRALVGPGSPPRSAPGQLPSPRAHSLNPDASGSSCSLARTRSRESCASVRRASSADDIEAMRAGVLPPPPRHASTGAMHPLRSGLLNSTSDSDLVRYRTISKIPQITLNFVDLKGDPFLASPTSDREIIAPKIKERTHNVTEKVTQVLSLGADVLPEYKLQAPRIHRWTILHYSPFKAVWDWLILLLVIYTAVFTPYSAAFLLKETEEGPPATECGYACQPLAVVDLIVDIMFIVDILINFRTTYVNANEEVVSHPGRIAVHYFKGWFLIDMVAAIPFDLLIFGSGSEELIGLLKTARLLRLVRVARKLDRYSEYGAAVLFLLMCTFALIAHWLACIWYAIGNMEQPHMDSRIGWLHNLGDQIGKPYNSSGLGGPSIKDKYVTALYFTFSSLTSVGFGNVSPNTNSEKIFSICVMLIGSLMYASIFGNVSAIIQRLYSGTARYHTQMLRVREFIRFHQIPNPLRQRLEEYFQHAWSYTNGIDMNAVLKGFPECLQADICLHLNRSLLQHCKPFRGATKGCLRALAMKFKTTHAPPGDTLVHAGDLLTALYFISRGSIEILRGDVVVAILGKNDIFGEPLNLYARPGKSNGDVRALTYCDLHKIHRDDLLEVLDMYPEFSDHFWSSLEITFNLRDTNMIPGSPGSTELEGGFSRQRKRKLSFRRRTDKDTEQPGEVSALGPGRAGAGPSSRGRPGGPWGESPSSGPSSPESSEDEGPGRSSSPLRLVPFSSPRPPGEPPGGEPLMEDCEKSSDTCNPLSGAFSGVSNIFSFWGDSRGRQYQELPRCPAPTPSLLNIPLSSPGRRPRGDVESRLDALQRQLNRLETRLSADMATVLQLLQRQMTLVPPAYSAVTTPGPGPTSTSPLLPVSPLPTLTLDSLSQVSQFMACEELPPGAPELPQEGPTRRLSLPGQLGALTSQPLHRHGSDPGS
Records with an inconclusive call do not appear. Calls of active or inactive are those of the source. Calls follow the shape of the dose curve; as a rule, active = well fitted inhibition curve with a large enough effect in the repeat runs; inconclusive = weak or mixed curves; inactive = flat fitted curve, though single readings scatter.
Write down one outcome, taken from active, inactive

Solved cases below.
{"compound": "CC(C)Nc1ccc(NC(C)C)c2c1C(=O)c1ccccc1C2=O", "class-label": "inactive"}
{"compound": "C[N+]1(CC2COC(c3ccccc3)(C3CCCCC3)O2)CCCCC1 (centres undefined)", "class-label": "active"}
{"compound": "CC(=O)OC[C@H]1O[C@@H](n2ncc(=O)[nH]c2=O)[C@H](OC(C)=O)[C@@H]1OC(C)=O", "class-label": "inactive"}

Outcome? CCC(C)(C)CC
inactive

Outcome? NCC(=O)CCC(=O)O
inactive

Outcome? O=C(O)C1(C(=O)Nc2ccc(Cl)cc2Cl)CC1
inactive

Outcome? CC(C)C[C@H]1C(=O)N2CCC[C@H]2[C@]2(O)O[C@](NC(=O)[C@@H]3C=C4c5cccc6[nH]c(Br)c(c56)C[C@H]4N(C)C3)(C(C)C)C(=O)N12
inactive

Outcome? CC(=O)[O][Al][O]C(C)=O
inactive

Outcome? O=C(NCCO[N+](=O)[O-])c1cccnc1
inactive

Outcome? COc1cc2nc(Cl)nc(N)c2cc1OC
inactive

Outcome? CCN(CC)CCOC(=O)C(Cc1cccc2ccccc12)CC1CCCO1 (centres undefined)
active

Outcome? C=C(C)C(=O)OCCOCC
inactive

Outcome? COC(=O)c1ccc(I)cc1S(=O)(=O)NC(=O)Nc1nc(C)nc(OC)n1
inactive

Outcome? Clc1ccc(Cn2c(CN3CCCC3)nc3ccccc32)cc1
active

meta.source: PubChem BioAssay (Tox21)
